tested on: DLK; construct: gene MAP3K12; conditions: concentration: 1 μM, replicates: in singlicate; n = 1;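 further: KINOMEscan kinase panel screen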
Friendly reminder: %Inh below 10% is yes, at or above is no.

As a guide, the following entries are already answered.
molecule: Fc1ccc(-c2ncn(CCCN3CCOCC3)c2-c2ccccn2)cc1
cat: no
--
molecule: N#Cc1c(N2CCOCC2)sc(-c2ccn[nH]2)c1-c1ccc(Cl)cc1
cat: no
--
molecule: O=C(NCCNc1ccnc(Nc2ccc(F)cc2)n1)c1cc2ccccc2s1
cat: no
--
molecule: CCn1cnc2c(N)ncnc21
cat: yes

Just wondering, is %Inh of CN(C(=O)c1ccc(-c2cc(-c3c[nH]nc3-c3ccccn3)ccn2)cc1)C1CCOCC1 below 10%? no

Confirm or reject: %Inh of O=c1cc(N2CCOCC2)nc2n(Cc3cccc(Cl)c3Cl)c(C3CC3)nn12 lies strictly below 10% yes

Field: below-cutoff. Rule: recorded %Inh strictly less than 10%. Subject: NS(=O)(=O)c1cccc(-c2ccc3nccc(-c4cccc(S(N)(=O)=O)c4)c3c2)c1 yes

%Inh strictly < 10% for this molecule? Cc1c(Cn2c(C)nn3c(=O)cc(N4CCOC(C)C4)nc23)cccc1C(F)(F)F (stereo not drawn) yes

Is the reported %Inh for NCC(NC(=O)c1cc(-c2cn[nH]c2)c(-c2ccnc3[nH]ccc23)s1)c1ccccc1.O=C(O)C(F)(F)F.O=C(O)C(F)(F)F (stereo not drawn) strictly below 10%? no

Could you please tell me whether %Inh recorded for O=C(c1ccc(-c2cc(-c3c[nH]nc3-c3ccccn3)ccn2)cc1)N1CCOCC1 is less than 10%? yes

Record Nc1nc(-c2ccc3c(N)n[nH]c3c2)cc(N2CCCC2)n1 : is its %Inh strictly below 10%? yes

Dear colleague, could you confirm whether %Inh of O=C(Nc1n[nH]c2cc(-c3cccc(F)c3)ccc12)C1CC1 falls below 10%? Thanks. yes

Please determine if CCCCCc1nc2c(N)ncnc2n1CCCCC is below 10% in terms of %Inh. yes

Here's an entry: Fc1ccc(-c2nn3c(OCC(F)(F)F)cccc3c2-c2ccncc2)cc1 . Is its %Inh below 10%? no

Lab note: confirm whether the reported %Inh for this molecule is below 10%, equality not counting. molecule: NS(=O)(=O)CCc1cccc(Nc2nccc(-c3c(-c4cccc(NC(=O)c5c(F)cccc5F)c4)nn4ccccc34)n2)c1 no

Quick check: %Inh of Cc1nnc(-c2ccc3occ(-c4ccc(C(C)O)cc4)c3c2)o1 (stereo not drawn) under 10%? yes

Does the reported %Inh of the following molecule sit strictly below 10%? COc1cc2ncn(-c3cc(OCc4sccc4Cl)c(C(N)=O)s3)c2cc1OC no

Find out if reported %Inh for Cl.Nc1ncnc2occ(-c3ccc(NC(=O)Nc4cc(C(F)(F)F)ccc4F)cc3)c12 is less than 10% no

Consider Cc1cn2c(=O)cc(N3CCOCC3)nc2n1Cc1cccc(Cl)c1Cl . Does its %Inh lie strictly below 10%? no
